Cited source: patent US8163909B2

target: CYP3A4 (CYP3A) (Homo sapiens); experiment: in vitro; conditions: microsomes, pH 7.4;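 also: inhibition of CYP3A-mediated 1-hydroxymidazolam formation after 10 min incubation with NADPH, quantified by HPLC MS relative to metabolite produced without test compound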
Sequence (P08684 2-503): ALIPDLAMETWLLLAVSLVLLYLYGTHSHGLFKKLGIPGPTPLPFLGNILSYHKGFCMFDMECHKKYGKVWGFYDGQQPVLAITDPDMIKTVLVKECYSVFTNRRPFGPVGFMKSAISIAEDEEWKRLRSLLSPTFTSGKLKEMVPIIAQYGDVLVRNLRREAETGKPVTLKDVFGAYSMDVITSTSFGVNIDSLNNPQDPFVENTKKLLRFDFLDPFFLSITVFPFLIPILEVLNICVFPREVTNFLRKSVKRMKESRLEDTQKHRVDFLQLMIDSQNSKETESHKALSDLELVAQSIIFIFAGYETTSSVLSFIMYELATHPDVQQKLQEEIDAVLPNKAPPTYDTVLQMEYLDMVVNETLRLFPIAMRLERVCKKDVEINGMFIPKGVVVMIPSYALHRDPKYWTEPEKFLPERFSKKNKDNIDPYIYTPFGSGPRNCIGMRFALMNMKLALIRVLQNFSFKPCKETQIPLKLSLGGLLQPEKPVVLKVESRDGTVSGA
measured.attribute: log10(IC50) (log10 of the value in nM)
Values below are the log10 of the recorded IC50, with nM as the unit.

Enquiry: Any idea what its log10(IC50) is? The molecule is C#Cc1cc(C[C@H](NC(=O)COC)[C@H](O)CN[C@H]2CC3(CCC3)Oc3ncc(CC(C)C)cc32)ccc1F [compound 780]
Return: 2.00

Enquiry: Any idea what its log10(IC50) is? The molecule is COCC(=O)N[C@@H](Cc1ccc2c(c1)OCO2)[C@H](O)CN[C@H]1CC2(CCC2)Oc2ccc(C[C@H](C)F)cc21 [compound 557]
Return: 2.48

Enquiry: Any idea what its log10(IC50) is? The molecule is CC(=O)N[C@@H](Cc1cc(F)cc(-c2nccs2)c1)[C@H](O)CN[C@H]1CC2(CCC2)Oc2ncc(CC(C)(C)C)cc21 [Example 643]
Return: 2.00

Enquiry: Any idea what its log10(IC50) is? The molecule is CC(C)(C)CCC(=O)N[C@@H](Cc1ccccc1)[C@H](O)CN[C@H]1CC2(CCC2)Oc2ncc(CC(C)(C)C)cc21 [compound 819]
Return: 2.30

Enquiry: Any idea what its log10(IC50) is? The molecule is COCC(=O)N[C@@H](Cc1cc(F)cc(F)c1)[C@H](O)CN[C@H]1CC2(CCC2)Oc2c1cc(CC(C)(C)C)nc2Nc1ccncc1 [compound 571]
Return: 2.00

Enquiry: Any idea what its log10(IC50) is? The molecule is COCC(=O)N[C@@H](Cc1cc(F)cc(-c2nccs2)c1)[C@H](O)CN[C@H]1CC2(CCC2)Oc2cnc(CC(C)(C)F)cc21 [compound 718]
Return: 2.48

Enquiry: Any idea what its log10(IC50) is? The molecule is CO[C@H](C)C(=O)N[C@@H](Cc1cccc(-c2nccs2)c1)[C@H](O)CN[C@H]1CC2(CCC2)Oc2ncc(CC(C)C)cc21 [Example 776]
Return: 2.30

Enquiry: Any idea what its log10(IC50) is? The molecule is CC(=O)N[C@@H](Cc1cccc(F)c1)[C@H](O)CN[C@H]1CC2(CCC2)Oc2c(-c3ccncc3)cc(Cl)cc21 [compound 595]
Return: 2.00

Enquiry: Any idea what its log10(IC50) is? The molecule is COCC(=O)N[C@@H](Cc1ccc(F)cc1)[C@H](O)CN[C@H]1CC2(CCC2)Oc2c1cc(CC(C)C)cc2-n1ccnc1 [Example 478]
Return: 2.00

Enquiry: Any idea what its log10(IC50) is? The molecule is COCC(=O)N[C@@H](Cc1ccc2c(c1)OCO2)[C@H](O)CN[C@H]1CC2(CCC2)Oc2ncc(CCC(F)(F)F)cc21 [compound 445]
Return: 2.30

Enquiry: Any idea what its log10(IC50) is? The molecule is COCC(=O)N[C@@H](Cc1cccc(F)c1)[C@H](O)CN[C@H]1CC2(CCC2)Oc2ccc(C[C@H](C)F)cc21 [compound 512]
Return: 3.76

Enquiry: Any idea what its log10(IC50) is? The molecule is COCC(=O)N[C@@H](Cc1cc(F)cc(F)c1)[C@H](O)CN[C@H]1CC2(CCC2)Oc2c(-c3ccccc3F)cc(CC(C)(C)C)cc21 [compound 487]
Return: 3.20

Enquiry: Any idea what its log10(IC50) is? The molecule is CO[C@H](C)C(=O)N[C@@H](Cc1ccc(F)c(-c2nccs2)c1)[C@H](O)CN[C@H]1CC2(CCC2)Oc2ncc(CC(C)(C)C)cc21 [Example 690]
Return: 2.00

Enquiry: Any idea what its log10(IC50) is? The molecule is COCC(=O)N[C@@H](Cc1cccc(F)c1)[C@H](O)CN[C@H]1CC2(CCC2)Oc2c(-c3ccnc(N(C)C)c3)cc(CC(C)(C)C)cc21 [Example 439]
Return: 3.11

Enquiry: Any idea what its log10(IC50) is? The molecule is CO[C@H](C)C(=O)N[C@@H](Cc1cc(F)cc(-c2nccs2)c1)[C@H](O)CN[C@H]1CC2(CCC2)Oc2cnc(CC(C)(C)F)cc21 [compound 721]
Return: 2.48

Enquiry: Any idea what its log10(IC50) is? The molecule is COCC(=O)N[C@@H](Cc1ccccc1)[C@H](O)CN[C@H]1CC2(CCC2)Oc2c(Br)cc(CC(C)C)cc21 [compound 544]
Return: 3.26

Enquiry: Any idea what its log10(IC50) is? The molecule is CCCc1cnc2c(c1)[C@@H](NC[C@H](O)[C@@H](Cc1cc(F)cc(-c3nccs3)c1)NC(=O)[C@@H](C)OC)CC1(CCC1)O2 [compound 815]
Return: 2.30

Enquiry: Any idea what its log10(IC50) is? The molecule is CC(=O)N[C@@H](Cc1cccc(-c2nccs2)c1)[C@H](O)CN[C@H]1CC2(CCC2)Oc2ccc(CC(C)(C)C)cc21 [Example 641]
Return: 2.85

Enquiry: Any idea what its log10(IC50) is? The molecule is CCOCC(=O)N[C@@H](Cc1ccc(F)c(-c2nccs2)c1)[C@H](O)CN[C@H]1CC2(CCC2)Oc2ncc(CC(C)(C)C)cc21 [compound 904]
Return: 2.00

Enquiry: Any idea what its log10(IC50) is? The molecule is CO[C@H](C)C(=O)N[C@@H](Cc1cc(F)cc(-c2nccs2)c1)[C@H](O)CN[C@H]1CC2(CCC2)Oc2ncc(C#CC3CC3)cc21 [compound 880]
Return: 2.48

Enquiry: Any idea what its log10(IC50) is? The molecule is CO[C@H](C)C(=O)N[C@@H](Cc1cc(F)cc(-c2nccs2)c1)[C@H](O)CN[C@H]1CC2(CCC2)Oc2c1cc(CC(C)C)nc2Cl [compound 752]
Return: 2.00

Enquiry: Any idea what its log10(IC50) is? The molecule is CC(=O)N[C@@H](Cc1ccc(F)c(-c2ccco2)c1)[C@H](O)CN[C@H]1CC2(CCC2)Oc2ccc(CC(C)(C)C)cc21 [Example 432]
Return: 3.18

Enquiry: Any idea what its log10(IC50) is? The molecule is COCC(=O)N[C@@H](Cc1ccc(F)c(F)c1)[C@H](O)CN[C@H]1CC(C)(C)Oc2ncc(CC(C)(C)C)cc21 [compound 676]
Return: 3.30
